# System: Human primary neonatal foreskin fibroblasts (CRL2097)
# Assay Method Text: Generation of iMSCs from fibroblasts by chemical treatment, flow cytometry for SSEA-4 and PODXL
# Format: cell-based
# Run Parameters: Table 2: other factors or a combination, tested in the same manner; CRL2097 fibroblasts; DMEM only 0.1%
Reported Property: Percentage of cells with both SSEA-4 and PODXL (%)
Just the number please, in %, no unit attached.

Which Percentage of cells with both SSEA-4 and PODXL value is on record for O=C(NCc1ccccc1)c1csc(Nc2ccncn2)n1 [Thiazovivin] ?
0.80

For the compound CC(C)N(CCCNC(=O)Nc1ccc(C(C)(C)C)cc1)C[C@H]1O[C@@H](n2cc(Br)c3c(N)ncnc32)[C@H](O)[C@@H]1O [SGC0946] , what Percentage of cells with both SSEA-4 and PODXL is on record?
0.20

What Percentage of cells with both SSEA-4 and PODXL value was documented for this compound, N[C@@H](CCC(=O)N[C@@H](CS)C(=O)NCC(=O)O)C(=O)O [GSH, Glutathione] ?
0.40

Would you mind telling me what Percentage of cells with both SSEA-4 and PODXL value was observed for Cc1cccc(-c2n[nH]cc2-c2ccc3ncccc3n2)n1 [Repsox] ?
0.40
